- System: IGROV-1
- test_protocol: NCI tumour cell line growth inhibition, 48 h
The source made the active and inactive calls. Cut-off read from the data, not from the text of the source: active = GI50 up to about 1.1 µM and inactive = higher.
This listing pairs molecules with measured GI50.
measurement_kind: GI50

COc1ccc2nc3ccc(OC)cc3c([S+]([O-])Cc3ccccc3)c2c1 (centres undefined): 7.96 µM (inactive)
O=S(=O)(O)c1cc(S(=O)(=O)O)c2c(/N=N/c3ccc(S(=O)(=O)O)c4ccccc34)c(O)ccc2c1: > 100 µM (inactive)
Cc1ccc(S(=O)(=O)N2C3C=CC(C3)[C@@H]2C(Cl)(Cl)Cl)cc1 (some centres undefined): 19.6 µM (inactive)
COC(=O)c1cc(/C=C\c2cc(OC)ccc2OC)ccc1OC: 13.7 µM (inactive)
Cc1nc(Nc2nnc(-c3cc([N+](=O)[O-])cc([N+](=O)[O-])c3C)o2)sc1C(=O)CC(=O)Cc1nc2ccc(Cl)cc2nc1O: > 100 µM (inactive)
O=C(NCc1ccccc1)c1cnc(Cl)cn1: 42.8 µM (inactive)
CC1(C)OCC2(CO1)CSCCCSCC1(COC(C)(C)OC1)CSCCCSC2: > 100 µM (inactive)
COc1cc([C@H]2Oc3c(c(O)cc4oc(-c5ccccc5)cc(=O)c34)O[C@@H]2CO)ccc1O: 51.8 µM (inactive)
COC(=O)[C@]12CCC(C)[C@H](C)[C@H]1C1=CCC3[C@@]4(C)CC[C@H](OC(C)=O)C(C)(C)C4CC[C@@]3(C)C1(C)C(O)C2 (some centres undefined): > 100 µM (inactive)

----------
Below, each entry is listed alongside its reported GI50.
- Tested on: NCI-H23
- test_protocol: NCI tumour cell line growth inhibition, 48 h
The source made the active and inactive calls. Cut-off read from the data, not from the text of the source: active = GI50 up to about 1.1 µM and inactive = higher.
measurement_kind: GI50

COc1cc(Nc2nc3cc(C(F)(F)F)ccc3nc2C)cc(OC)c1OC: 10.7 µM (inactive)
CCCCCNC(=O)CCCCCCCCCCCNC(=O)CCCCCCCCCCN1C=CC(=CC=C2C=CC(=O)C=C2)C=C1: 28.2 µM (inactive)
c1ccc(CCCNc2nnnc3ccccc23)cc1: 70.3 µM (inactive)
Cc1ccccc1NC(=O)c1ccc([N+](=O)[O-])cc1: > 100 µM (inactive)
Cc1ccc(S(=O)(=O)N2CC2CCCCC=O)cc1 (stereo not given): > 100 µM (inactive)
[N-]=[N+]=NC[C@H]1OCO[C@H](CN=[N+]=[N-])[C@@H](OCCOCCCl)[C@@H]1OCCOCCCl: > 100 µM (inactive)
C#C[C@]1(O)CC[C@H]2[C@@H]3CCc4cc(O)ccc4[C@H]3CC[C@@]21C: 23.7 µM (inactive)
O=C(Cc1nc2ccccc2s1)C(=O)Nc1cccc(Cl)c1: > 100 µM (inactive)
Cc1cc(OCC(O)CO)ccc1Cl (stereo not given): > 100 µM (inactive)
CCOC(=O)N/N=C(/N)c1cccc([N+](=O)[O-])c1: > 100 µM (inactive)

----------
- Test system: MCF7
- test_protocol: NCI tumour cell line growth inhibition, 48 h
Calls of active or inactive are those of the source. No stated cut-off is given here; in the data, active = GI50 up to about 1.1 µM and inactive = higher.
measurement_kind: GI50

O=C(Nc1cc2cc([N+](=O)[O-])ccc2oc1=O)c1cccs1: 19.6 µM (inactive)
O=c1nc(N2CCN(c3ccccc3)CC2)ccn1C1OC(CO)C(O)C1O (stereo unspecified): 54.6 µM (inactive)
O=C(Cc1ccc(Cl)c(Cl)c1)NCC1(N2CCCCC2)CCCCC1: 43.6 µM (inactive)
CC(C)(C)c1ccc(-c2nc3ccccc3c(=O)o2)cc1: 27.7 µM (inactive)
Cc1ccc(Nc2sc(C)cc2C#N)c([N+](=O)[O-])c1: > 100 µM (inactive)
S=C(Nc1ccc(Cl)cc1)c1ccc(CN2CCCCC2)s1: 13.9 µM (inactive)
